Target: HLA-C*06:02
Assay: IEDB peptide-MHC binding, purified MHC/competitive/fluorescence; filed as Kd, often an IC50 or EC50 that approximates it; bounds were set here for any values at or beyond the usual limits of such assays
Conditions: source organism: Homo sapiens
parameter.measured: pKd
Quick note: pKd values are minus log10 of concentrations in mol/L.

# input sequence: MAMGILHTI ; wanted: its pKd
5.75

* * *

Biological target: HLA-A*03:01
Assay: IEDB peptide-MHC binding, purified MHC/direct/fluorescence; filed as Kd, often an IC50 or EC50 that approximates it; bounds were set here for any values at or beyond the usual limits of such assays
Conditions: source organism: Influenza A virus (A/Goose/Hong Kong/385.3/2000(H5N1))
parameter.measured: Kd (µM)
Please state the figure in µM; there is no need to write the unit.

Give Kd (HLA-A*03:01) of the following sequence: IIAARNIVR
1.54

* * *

Listing of entries alongside the reported pKd.
Target: HLA-A*68:01
Assay: IEDB peptide-MHC binding, purified MHC/competitive/radioactivity; filed as Kd, often an IC50 or EC50 that approximates it; bounds were set here for any values at or beyond the usual limits of such assays
Settings: source organism: Mammarenavirus lassaense
Quick note: pKd values are minus log10 of concentrations in mol/L.

[[record]]
residues = "TLMSIISTFH"
val = 5.53


Give pKd (HLA-A*68:01) of the following sequence: ICKMPLPTR
4.79

* * *

Molecular target: HLA-A*26:01
Assay: IEDB peptide-MHC binding, purified MHC/competitive/radioactivity; filed as Kd, often an IC50 or EC50 that approximates it; bounds were set here for any values at or beyond the usual limits of such assays
Details: source organism: Dengue virus 2 Jamaica/1409/1983
Listing of entries alongside the reported Kd.
Please state the figure in µM; there is no need to write the unit.

// solved cases for Kd follow
[[record]]
residues = "ITEAELTGY"
tgt = "HLA-A*26:01"
val = 8.27

[[record]]
residues = "FVTLITGNM"
tgt = "HLA-A*26:01"
val = 1.39


Let us move to another entry and its Kd.
Give Kd (HLA-A*26:01) of the following sequence: ETLQRKYGGA
0.311

* * *

Molecular target: HLA-C*06:02
Test: IEDB peptide-MHC binding, purified MHC/direct/fluorescence; filed as Kd, often an IC50 or EC50 that approximates it; bounds were set here for any values at or beyond the usual limits of such assays
Details: source organism: Burkholderia mallei ATCC 23344
parameter.measured: Kd

# input sequence: RLRRRRHPL ; wanted: its Kd
≥ 20 µM

* * *

Molecular target: HLA-A*02:01
Experiment: IEDB peptide-MHC binding, purified MHC/competitive/fluorescence; bounds were set here for any values at or beyond the usual limits of such assays
Conditions: source organism: Taeniopygia guttata
parameter.measured: IC50 (µM)
Please state the figure in µM; there is no need to write the unit.

# input sequence: FLLPILSQI ; wanted: its IC50
0.0526

* * *

Target: HLA-B*53:01
Assay: IEDB peptide-MHC binding, purified MHC/competitive/radioactivity; filed as Kd, often an IC50 or EC50 that approximates it; bounds were set here for any values at or beyond the usual limits of such assays
Conditions: source organism: Hepatitis C virus (isolate 1)
parameter.measured: Kd (µM)
Please state the figure in µM; there is no need to write the unit.

Give Kd (HLA-B*53:01) of the following sequence: HPNIEEVAL
0.163
